Collected literature values of pKi measured for Coagulation factor XI (Homo sapiens).
pKi: −log10 of the molar value.
measure: pKi

molecule | sign_qualifier | val
COC(=O)Nc1ccc2c(c1)NC(=O)[C@H](C)CCC[C@H](N1CC[C@H](c3c(F)ccc(Cl)c3F)OC1=O)c1cc-2cnc1F | = | 8.57
Cc1nc(-c2cccc(C#N)c2)n(O)c1C(=O)N[C@@H](Cc1ccccc1)C(=O)Nc1ccc(C(=O)O)cc1 | = | 4.62
COC(=O)Nc1ccc(-c2ccnc([C@H](Cc3ccccc3)NC(=O)[C@H]3CC[C@H](CN)CC3)c2)cc1 | = | 8.20
N=C(N)c1ccc(CNC(=O)[C@H](Cc2ccc(O)cc2)NC(=O)[C@@H](CC2CCCCC2)NCC(=O)O)cc1 | = | 6.10
NC[C@H]1CC[C@H](C(=O)N[C@@H](Cc2ccccc2)c2nccc(-c3ccccc3)n2)CC1 | = | 4.94
N=C(N)c1ccc(CNC(=O)C(CCC2CCNCC2)NC(=O)[C@@H](CC2CCCCC2)NCC(=O)O)cc1 (mixture of isomers) | < | 4.72
CC[C@H](C)[C@H](NS(=O)(=O)Cc1ccc(C(=O)O)cc1)C(=O)N[C@@H](CCC(N)=O)C(=O)NCc1ccc(C(=N)N)cc1 | = | 7.77
